Each recorded value in this set is attributed to paper PMC9596378.

Listed next: entries and their corresponding pIC50.
# system: Cyp40 (Homo sapiens, UniProt Q08752)
# Sequence (Q08752 1-183): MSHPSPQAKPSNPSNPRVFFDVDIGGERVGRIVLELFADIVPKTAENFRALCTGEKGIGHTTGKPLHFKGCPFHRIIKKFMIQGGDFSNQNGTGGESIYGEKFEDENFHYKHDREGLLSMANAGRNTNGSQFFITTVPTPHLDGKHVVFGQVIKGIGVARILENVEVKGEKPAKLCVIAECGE
# experiment.description: Chymotrypsin coupled prolyl-isomerase assay
# setup.conditions: Wild-Type Cyclophilin Prolyl Isomerase Inhibition IC50 Values, Cyp40, wild-type Cyp40
Lab note: report pIC50 as minus log10 of the concentration in molar units, number only.

- compound: "CC12CCCN(C1)C(=O)C=CC(=O)NCCC(C(=O)NCCOCCN)NC(=O)Cc1ccccc1CNC(=O)C(Cc1ccco1)NC2=O (stereo not shown)"
  test.value: 5.59
- compound: "NCCOCCNC(=O)C1CCNC(=O)C=CC(=O)N2CCCC(C2)C(=O)NC(Cc2ccc(C(=O)c3ccccc3)cc2)C(=O)NCc2ccccc2CC(=O)N1 (stereo not shown)"
  test.value: 5.52
- compound: "NCCOCCNC(=O)[C@@H]1CCNC(=O)/C=C/C(=O)N2CCC[C@](Cc3ccccc3)(C2)C(=O)N[C@@H](Cc2ccc(-c3ccccc3)cc2)C(=O)NCc2ccccc2CC(=O)N1"
  test.value: 6.59
- compound: "NCCCc1ccc(-c2ccc(C[C@@H]3NC(=O)[C@]4(Cc5ccccc5)CCCN(C4)C(=O)/C=C/C(=O)NCC[C@@H](C(=O)NCCOCCN)NC(=O)Cc4ccccc4CNC3=O)cc2)cc1"
  test.value: 5.40
- compound: "NCCOCCNC(=O)[C@@H]1CCNC(=O)/C=C/C(=O)N2CCC[C@](Cc3ccccc3)(C2)C(=O)N[C@@H](Cc2ccc(C(=O)c3ccccc3)cc2)C(=O)NCc2ccccc2CC(=O)N1"
  test.value: 7.30

// query // returns reported pIC50 for input NCCOCCNC(=O)[C@@H]1CCNC(=O)/C=C/C(=O)N2CCC[C@](Cc3ccccc3)(C2)C(=O)N[C@@H](Cc2ccc(-c3ccc(CC(C(=O)O)C(=O)O)cc3)cc2)C(=O)NCc2ccccc2CC(=O)N1
// result 4.66
